Origin of measurements: PubChem BioAssay (NCI)

Test system: HCT-116 colon
Assay: NCI tumour cell line growth inhibition, 48 h; in the data active = GI50 below about 0.43 µM; inactive = the rest
Would you mind answering with one of these outcomes? active, inactive

Please review the following examples before continuing.
compound	class label
C[C@@H](Oc1cc(-c2cnn(C3CC4(CNC4)C3)c2)cnc1N)c1c(Cl)ccc(F)c1Cl	inactive
CCOC(=O)c1c(C(F)(F)F)n([O-])c2ccc(Cl)cc2[n+]1=O	inactive
CS(=O)/C(C#N)=C\C=C\c1cccc(Cl)c1 (stereo not given)	inactive
Nc1ncnc2c1nc(N)n2C1OC(CO)C(O)C1O (stereo not given)	active

// next entry
GET /call?item= O=c1[nH]cc(CO)c(=O)[nH]1 returns the recorded outcome of this test.
inactive

----------
System: MDA-MB-231 breast
Test: NCI tumour cell line growth inhibition, 48 h
What TGI was measured for each of the following?

For each of the compounds below, note its TGI.
1. O=[N+]([O-])c1ccc(Oc2cccc(C(F)(F)F)c2)c([N+](=O)[O-])c1
2. O=NNc1ccc(Sc2ccc3ccccc3c2)cn1
3. Cc1ccc(-n2nnc3c(sc4ccccc43)c2=O)cc1

["10.2 µM", "> 100 µM", "> 100 µM"]

Would you mind listing TGI for each of the following compounds?
1. S=C1NCCN1C(=S)NC1CCCCC1
2. O=C1C=CC(=O)c2c1cc1ccccc1c2O
3. CC1(C)CC(=O)C(CC2C(=O)c3ccccc3C2=O)C(=O)C1C(=O)C(=O)Nc1cccc2ccc(O)cc12 (stereo not given)

["> 100 µM", "4.25 µM", "> 100 µM"]

I would be grateful if you could provide TGI for each of the following entries.
1. O=C1c2ccccc2-c2c1c1c(O)cccc1n2CCCc1ccccc1
2. c1cc2ccc3cc2cc1CNCCOCCNCc1ccc2ccc(cc2c1)CNCCOCCNC3
3. CC(=O)OCC1OC(N2C(=O)CC(N)=Nc3ccccc32)C(OC(C)=O)C(OC(C)=O)C1OC(C)=O (stereo not given)
4. CN(CCNC(=O)c1cn(C)c2c1ccc1cc(Cl)ccc12)CCNC(=O)c1cn(C)c2c1ccc1cc(Cl)ccc12

> 100 µM
> 100 µM
> 100 µM
71.8 µM

----------
Tested on: UO-31 renal
Assay: NCI tumour cell line growth inhibition, 48 h
endpoint label: TGI

Illustrative cases are given below, each with its answer.
compound	endpoint label	result
C[N+](C)(C)CC(=O)N/N=C/c1oc(-c2cccc([N+](=O)[O-])c2)c(-c2cccc([N+](=O)[O-])c2)c1[N+](=O)[O-]	TGI	> 100 µM
Cc1cc(NS(=O)(=O)c2ccc(NC(=O)COc3ccc(-c4cc5ccccc5[nH]4)cc3)cc2)no1	TGI	3.76 µM
O=NN(CCCl)C(=O)Nc1ccc(Cl)c(Cl)c1	TGI	99.3 µM

Answer for every listed entry: what is its TGI? The entries follow.
1. CC(=O)N1N=C(c2ccccc2Nc2ccccc2C2=NN(C(C)=O)C(c3ccccc3)O2)OC1c1ccccc1 (stereo not given)
2. CCOC(=O)c1c(C(F)(F)F)n([O-])c2ccc(Cl)cc2[n+]1=O

["> 100 µM", "2.93 µM"]

----------
Field: TGI. Provide a value for each of the compounds that follow.
Tested on: KM12 colon
Experiment: NCI tumour cell line growth inhibition, 48 h
One number for each entry, in µM.

compound	endpoint label	numeric result
S=C1NCCN1C(=S)NC1CCCCC1	TGI	65.3

For the 4 compounds below, give their TGI values.
1. Cc1ccc2c(n1)C(=O)C(Cl)=C(Nc1ccc(N3CCN(C)CC3)cc1)C2=O
2. O=C(O)CC1C(=O)OC2C3COC(=O)c4cc(O)c(O)c(O)c4-c4c(cc(O)c(O)c4O)C(=O)OC2C(OC(=O)c2cc(O)c(O)c4c2C1C(O)C(=O)O4)C(OC(=O)c1cc(O)c(O)c(O)c1)O3 (stereo not given)
3. C=CC(Br)(CBr)CCC(Br)C(C)(C)Br (stereo not given)
4. CC[C@@]1(OC(=O)C(N)CCC(=O)O)C(=O)OCc2c1cc1n(c2=O)Cc2cc3ccccc3nc2-1 (stereo not given in full)

[23.5, 42.6, 22.3, 6.1]

----------
System: COLO 205 colon
Assay: NCI tumour cell line growth inhibition, 48 h
Assign TGI to each entry below.
Answers are plain numbers, in µM.

compound	TGI, µM
CC(=O)c1c2c(cc3c1CC1(C3)Cc3ccc4c(c3C1=O)CCC4)CCC2 (stereo not given)	39.3

Now, please, on to the next compound.
Return reported TGI. Input compound: O=C1CC(NC2CC(=O)c3c(Br)sc(Br)c32)c2c(Br)sc(Br)c21 (stereo not given)
8.77

----------
System: MALME-3M melanoma
Experiment: NCI tumour cell line growth inhibition, 48 h
endpoint label: TGI

Here are 6 compounds together with their reported answers.
compound	TGI
CCOC(=O)C1=C(C)NC(C)=C(C(=O)OCC)C1c1cc(Br)c(O)c(OC)c1	32.7 µM
Cc1cn(C2CC(N=[N+]=[N-])C(CO)O2)c(=O)[nH]c1=O (stereo not given)	> 1000 µM
Nc1cccc(/C=C/CN2CCN(CCOC(c3ccccc3)c3ccccc3)CC2)c1	34.7 µM
COC1=CCC2=C(CCN(C(=O)C3CC3)C2Cc2ccc(OC)c(O)c2)C1 (stereo not given)	> 100 µM
CC(=O)C(CN(C)Cc1ccccc1)C(c1ccccc1)c1c(O)c2ccccc2oc1=O (stereo not given)	> 100 µM
O=S1CCN(Cc2ccc(-c3ccc4ncnc(Nc5ccc(OCc6ccccc6)c(F)c5)c4c3)o2)CC1	> 22.6 µM

// each compound listed below needs its TGI
1. COC(=O)[C@H]1CC(=O)C=C2CCCC21 (stereo not given in full)
2. CC(=O)N1N=C(c2ccccc2Nc2ccccc2C2=NN(C(C)=O)C(c3ccccc3)O2)OC1c1ccccc1 (stereo not given)
3. O=NNc1ccc(Sc2ccc3ccccc3c2)cn1
4. O=C1CSc2sc(=S)sc2S1

1. > 100 µM
2. > 100 µM
3. 35.6 µM
4. > 100 µM

----------
Could you please report measured TGI for the items listed next?
Tested on: HCT-116 colon
Assay: NCI tumour cell line growth inhibition, 48 h

Known TGI results, listed for orientation:
compound	result
Cc1cc(N2CCN(C)CC2)nc(N(CCNc2ccnc3cc(Cl)ccc23)Cc2ccco2)n1	10.4 µM
OCCSCc1cc(Cl)cc(Cl)c1O	> 100 µM
COc1ccc2c(c1)CC[C@@H]1C2CC[C@]2(C)C(=O)N(CCN3CCCCC3)C(=O)CC12 (stereo not given in full)	> 100 µM
O=C(O)c1cccc(S(=O)(=O)NN2C(=O)CSC2c2ccccc2Cl)c1 (stereo not given)	> 100 µM
COC(=O)CCN1CCN(CCO)CC1C (stereo not given)	> 10 µM

Consider the following items and state reported TGI for each.
1. Nc1cccc(/C=C/CN2CCN(CCOC(c3ccccc3)c3ccccc3)CC2)c1
2. CC1C2CC(CC2O)C1(C)C (stereo not given)
3. COC(=O)[C@H]1CC(=O)C=C2CCCC21 (stereo not given in full)
4. O=NNc1ccc(Sc2ccc3ccccc3c2)cn1
5. CC1C(O)[C@@]2(OC[C@@]34C(=O)CC5(O)[C@H](CCC6Cc7nc8c(nc7C[C@]65C)CC5CC[C@@H]6C7=C[C@H]9O[C@@]%10(O[C@@](C)(CO)C[C@@H]%10O)C(C)[C@@]9(O)[C@]7(C)[C@@H](O)CC6[C@]5(C)C8)C3=CC[C@H]4C2C)OC1(C)C (stereo not given in full)

25.4 µM
> 100 µM
> 100 µM
40.6 µM
0.542 µM

----------
Tested on: OVCAR-5 ovarian
Experiment: NCI tumour cell line growth inhibition, 48 h
endpoint label: TGI

Here are 4 compounds together with their reported answers.
compound	tested on	endpoint label	result
C=CC(Br)(CBr)CCC(Br)C(C)(C)Br (stereo not given)	OVCAR-5 ovarian	TGI	33.2 µM
COc1ccc(/C=C/c2ccnc3ccccc23)cc1	OVCAR-5 ovarian	TGI	36.5 µM
CC1C(O)[C@@]2(OC[C@@]34C(=O)CC5(O)[C@H](CCC6Cc7nc8c(nc7C[C@]65C)CC5CC[C@@H]6C7=C[C@H]9O[C@@]%10(O[C@@](C)(CO)C[C@@H]%10O)C(C)[C@@]9(O)[C@]7(C)[C@@H](O)CC6[C@]5(C)C8)C3=CC[C@H]4C2C)OC1(C)C (stereo not given in full)	OVCAR-5 ovarian	TGI	0.0795 µM
CCCC(=O)n1[nH]c(=O)n(C(C)(C)C)c1=O	OVCAR-5 ovarian	TGI	> 100 µM

Hello, I would appreciate it if you could give TGI for each entry below.
1. CSC1=N/C(=C\c2ccccc2)C(=O)N1CN1CCOCC1
2. CCOC(=O)c1ncn2c1[nH]c(=O)c1ccccc12
3. OCCSCc1cc(Cl)cc(Cl)c1O
4. CN1C(=O)CN=C(c2ccccc2F)c2cc(N=C=S)ccc21

["> 100 µM", "> 100 µM", "> 100 µM", "> 100 µM"]

Please report TGI for every entry that follows.
1. O=c1[nH]cc(CO)c(=O)[nH]1
2. Clc1ccc(/C=C/c2nc(-c3ccc(Cl)cc3)cn3c2nc2ccccc23)cc1

1. > 100 µM
2. > 100 µM
